Source: the supplement of paper PMC7125110

B1: glmS ribozyme (parent)
chain: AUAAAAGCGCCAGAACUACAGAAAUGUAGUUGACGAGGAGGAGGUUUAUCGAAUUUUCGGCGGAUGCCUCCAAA

- Variants of: B1
- Method Summary: self-cleavage kobs at 2500 uM GlcN6P; higher = faster cleavage; RNA array
- Particulars: with glucosamine-6-phosphate
Fewer inactive variants are shown than the library holds.

Mutation String: A14C C71U
self-cleavage kobs at 2500 uM GlcN6P: 0.00483 s⁻¹
//
Mutation String: A12C U46C
self-cleavage kobs at 2500 uM GlcN6P: 0.00273 s⁻¹
//
Mutation String: C8G A33C A48C U69G
self-cleavage kobs at 2500 uM GlcN6P: < 1e-05 s⁻¹
//
Mutation String: A14G U46C
self-cleavage kobs at 2500 uM GlcN6P: 0.00744 s⁻¹
//
Mutation String: A15U U56C C68A C71G
self-cleavage kobs at 2500 uM GlcN6P: < 1e-05 s⁻¹
//
Mutation String: G13U U56C G62U
self-cleavage kobs at 2500 uM GlcN6P: < 1e-05 s⁻¹
//
Mutation String: G7U A39C U57G G63C C68U
self-cleavage kobs at 2500 uM GlcN6P: < 1e-05 s⁻¹
//
Mutation String: A12U G41U U45A
self-cleavage kobs at 2500 uM GlcN6P: 0.000989 s⁻¹
//
Mutation String: G44U C50A
self-cleavage kobs at 2500 uM GlcN6P: < 1e-05 s⁻¹
//
Mutation String: U30G G43U U45A C68U
self-cleavage kobs at 2500 uM GlcN6P: 0.000375 s⁻¹
//
Mutation String: A33C G59C A64G G66A C70A
self-cleavage kobs at 2500 uM GlcN6P: < 1e-05 s⁻¹
//
Mutation String: U56A C58G
self-cleavage kobs at 2500 uM GlcN6P: 0.000121 s⁻¹
//
Mutation String: U55A C68G
self-cleavage kobs at 2500 uM GlcN6P: 8.44e-05 s⁻¹
//
Mutation String: A14G U54A
self-cleavage kobs at 2500 uM GlcN6P: 0.0173 s⁻¹
//
Mutation String: C11A C16U C71U
self-cleavage kobs at 2500 uM GlcN6P: 0.000223 s⁻¹
//
Mutation String: G41U C50A
self-cleavage kobs at 2500 uM GlcN6P: < 1e-05 s⁻¹
//
Mutation String: A15U G44U C71U
self-cleavage kobs at 2500 uM GlcN6P: < 1e-05 s⁻¹
//
Mutation String: U45G U57A G59A G62U
self-cleavage kobs at 2500 uM GlcN6P: < 1e-05 s⁻¹
//
Mutation String: G44A U56A
self-cleavage kobs at 2500 uM GlcN6P: 0.00013 s⁻¹
//
Mutation String: A52G C68G
self-cleavage kobs at 2500 uM GlcN6P: 7.16e-05 s⁻¹
//
Mutation String: G37C G63A
self-cleavage kobs at 2500 uM GlcN6P: < 1e-05 s⁻¹
//
Mutation String: A42U A53U G59C G62C
self-cleavage kobs at 2500 uM GlcN6P: < 1e-05 s⁻¹
//
Mutation String: C8U U46A
self-cleavage kobs at 2500 uM GlcN6P: < 1e-05 s⁻¹
//
Mutation String: A52U A53G
self-cleavage kobs at 2500 uM GlcN6P: 6.31e-05 s⁻¹
//
Mutation String: G35U U54G C70A
self-cleavage kobs at 2500 uM GlcN6P: < 1e-05 s⁻¹
//
Mutation String: A39U G40U
self-cleavage kobs at 2500 uM GlcN6P: 0.00163 s⁻¹
//
Mutation String: A53U U56A C68U
self-cleavage kobs at 2500 uM GlcN6P: 0.000647 s⁻¹
//
Mutation String: G7A A12G
self-cleavage kobs at 2500 uM GlcN6P: < 1e-05 s⁻¹
//
Mutation String: A42G C70U
self-cleavage kobs at 2500 uM GlcN6P: 0.0261 s⁻¹
//
Mutation String: C11U G40U C70U
self-cleavage kobs at 2500 uM GlcN6P: 7.62e-05 s⁻¹
//
Mutation String: A14C U30A
self-cleavage kobs at 2500 uM GlcN6P: 0.000568 s⁻¹
//
Mutation String: G7C A12U A39G A53U
self-cleavage kobs at 2500 uM GlcN6P: < 1e-05 s⁻¹
//
Mutation String: A15C U30G U31G
self-cleavage kobs at 2500 uM GlcN6P: 0.00946 s⁻¹
//
Mutation String: C8A U54C A64C
self-cleavage kobs at 2500 uM GlcN6P: < 1e-05 s⁻¹
//
Mutation String: C34G A64U
self-cleavage kobs at 2500 uM GlcN6P: < 1e-05 s⁻¹
//
Mutation String: A39G G44C
self-cleavage kobs at 2500 uM GlcN6P: 0.000327 s⁻¹
//
Mutation String: G44C U57C
self-cleavage kobs at 2500 uM GlcN6P: < 1e-05 s⁻¹
//
Mutation String: U56G U65C
self-cleavage kobs at 2500 uM GlcN6P: 0.000169 s⁻¹
//
Mutation String: U31G A33C G38C A39G G62A
self-cleavage kobs at 2500 uM GlcN6P: < 1e-05 s⁻¹
//
Mutation String: G51C A52G
self-cleavage kobs at 2500 uM GlcN6P: < 1e-05 s⁻¹
//
Mutation String: U54A C70A
self-cleavage kobs at 2500 uM GlcN6P: 0.000122 s⁻¹
//
Mutation String: G32A G43A G63A A64G
self-cleavage kobs at 2500 uM GlcN6P: < 1e-05 s⁻¹
//
Mutation String: C16A U31C G43A U47G A53G C68U
self-cleavage kobs at 2500 uM GlcN6P: 8.35e-05 s⁻¹
//
Mutation String: C10U G38C G40A U55G
self-cleavage kobs at 2500 uM GlcN6P: < 1e-05 s⁻¹
//
Mutation String: U56A C67A
self-cleavage kobs at 2500 uM GlcN6P: 0.00323 s⁻¹
//
Mutation String: U49G G63U
self-cleavage kobs at 2500 uM GlcN6P: < 1e-05 s⁻¹
